interaction score values for the binders below.
Biological target: T1, AP8-AA
T1 chain: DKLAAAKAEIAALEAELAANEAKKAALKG
Assay: two-hybrid library CCmax;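 further: natural log of median RNA to DNA barcode read ratio; higher means stronger binding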

| BINDER | interaction score |
| --- | --- |
| KRLKQLRKRKQAKRWEEAQIEKELQAIEK [4H_APH2] | -1.53 |
| KRAKQLRKRLQALEWQLAQIRKELQAAEK [4H_APH3] | -0.758 |
| KRLKQIEKRLQAKEWEKAQLRKELQALRK [4H_APH4] | -1.39 |
| DKLAAAKAEIAALEAELAANEAKKAALKG [AP8-AA] | -1.3 |
